# test_details: Cytotoxicity against human HL cells assessed as cell viability at 50 uM after 72 hrs by resazurin dye based fluorescence assay relative to control
# stated_conditions: HL cells, read-out: Activity
Structures can show the parent of a compound that is named as a salt.
viability at 72 h, 50 µM values by entry
quantity_kind: viability at 72 h, 50 µM (%)

| compound | output_unit | observed |
| --- | --- | --- |
| O=c1cc(-c2ccc(O)cc2)oc2cc(O[C@@H]3O[C@H](CO)[C@@H](O)[C@H](O)[C@H]3O)cc(O)c12 | % | 48.1 |
| c1ccc2c3c([nH]c2c1)CNCC3 | % | 84.8 |
| CC(=O)O[C@H]1[C@H]2O[C@]23[C@@H]2CC[C@@H]4C[C@@H](O)CC[C@]4(C)[C@H]2CC[C@]3(C)[C@H]1c1ccc(=O)oc1 | % | 0.2 |
| CN1CCc2cc3c(c4c2[C@H]1Cc1ccccc1-4)OCO3 [REMERINE HYDROCHLORIDE] | % | 45.2 |
| C[C@]1(C(=O)O)CCC[C@]2(C)c3cc(O)ccc3CC[C@@H]12 | % | 27.9 |
| O=C1C[C@@H](c2ccc(O)c(O)c2)Oc2c1ccc(O[C@@H]1O[C@H](CO)[C@@H](O)[C@H](O)[C@H]1O)c2O | % | 82.6 |
| COc1ccc([C@@H]2CC(=O)c3c(O)cc(O[C@@H]4O[C@H](CO[C@@H]5O[C@@H](C)[C@H](O)[C@@H](O)[C@H]5O)[C@@H](O)[C@H](O)[C@H]4O)cc3O2)cc1O | % | 101 |
| CC(=O)N[C@H]1CN2CC[C@H](O)[C@@H]2[C@@H](O)[C@@H]1O | % | 86.6 |
| Oc1cc(O)c2c(c1)O[C@H](c1ccc(O)c(O)c1)[C@H](O)C2 [(-)-EPICATECHIN] | % | 93.4 |
| CCC1=CC2CN3CCc4c([nH]c5ccccc45)[C@@](C(=O)OC)(C2)C13 | % | 88.9 |
| O=c1cc(-c2ccccc2)oc2cc(O)ccc12 [7-HYDROXYFLAVONE] | % | 71.1 |
| Cc1cc2c(C(C)C)c(O)c(O)c(C=O)c2c(O)c1-c1c(C)cc2c(C(C)C)c(O)c(O)c(C=O)c2c1O | % | 0.1 |
| O=c1oc2cc(O)ccc2c2oc3cc(O)ccc3c12 | % | 96.3 |
| CCCCC[C@H](O)/C=C/C1=C(CCCCCCC(=O)O)C(=O)CC1 | % | 109 |
| C[C@@H]1C/C=C/C=C/C=C/C=C/[C@H](O[C@@H]2O[C@H](C)[C@@H](O)[C@H](N)[C@@H]2O)C[C@@H]2O[C@](O)(C[C@@H](O)C[C@H]3O[C@@H]3/C=C/C(=O)O1)C[C@H](O)[C@H]2C(=O)O | % | 67.1 |

----------
# test_details: Cytotoxicity against human HL cells assessed as cell viability at 50 uM after 72 hrs by resazurin dye based fluorescence assay relative to control
# stated_conditions: HL cells, read-out: Activity
Structures can show the parent of a compound that is named as a salt.
Hi! Just check whether viability at 72 h, 50 µM is below 40%. Below gives met, equal or above gives not met.

| compound | assigned_label |
| --- | --- |
| O=C(/C=C/c1ccc(O)c(O)c1)OCCc1ccccc1 | not met |
| O=C1c2c(O)cc(O)cc2O[C@H](c2ccc(O)c(O)c2)[C@H]1O [(+)-TAXIFOLIN] | not met |
| O[C@H]1CCN2Cc3ccccc3N=C12 | not met |
| CC(C)[C@@]1(NC(=O)[C@@H]2C[C@@H]3c4cccc5[nH]cc(c45)C[C@H]3N(C)C2)O[C@@]2(O)[C@@H]3CCCN3C(=O)[C@H](Cc3ccccc3)N2C1=O [DIHYDROERGOCRISTINE MESYLATE] | met |
| CC1(C)CC[C@]2(C(=O)O)CC[C@]3(C)C(=CC[C@@H]4[C@@]5(C)CC[C@H](O)C(C)(C)[C@@H]5CC[C@]43C)[C@@H]2C1 | met |
| CO[C@H]1[C@@H](O)[C@@H](C)O[C@H](O[C@H]2[C@H](Oc3cccc4c(O)c5c(=O)oc6ccc(C)c7c(=O)oc(c34)c5c67)O[C@H](C)[C@H](O)[C@@H]2O)[C@@H]1O | met |
